# Test system: K4 kissing-loop RNA reporter;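 further: bound reporter read as fluorescence of individual clusters on recovered sequencing chips by microscopy, with normalized cluster intensities fitted with a binding model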
# assay comment: apparent KD of K4 kissing-loop reporter; higher = weaker reporter binding
# conditions used: Eterna round: R107; input ligand: arginine 13.2 mM
readout name: apparent KD of K4 kissing-loop reporter
Don't forget the unit after the number, please.

AUUAAUAACUGAGGAUAUCGUUUUACUGUAGUGAUGUUACAGAAAAUUCACAUUAUAAUUUCUAUUCGAGAAGGCAGAAUAAUUA [JR_ExcFMNB_Sub014] : 74.6 nM
AGGACUCUUGUGGGUACGCAUCUAGCCGAUACCAGACUUCCAUAUGUCCCUUGGCAGCGGCAGUGAUGUUGUCGUUACGCCAUCA [theeternabot_exclusion_KL_Theo_A_34] : 133 nM
GGAUAGGAUAGAGGAUAUGGUAUAGGCAAGAAUAACUUGUCAUGUAAAUCCAUGAGGAGUGAUGUUCCAGAAGGCUGUCCUAUCG [MatMod 9 - Jieux - Exclusion - FMN B] : 179 nM
AGAUUCGACACGGCCGCCACUUGUGGUGGAUUAUCCUAUGUCGAACAUGAGUGAUGUUCAUGUACAAGGACCGGGUGUUGAGUCU [KL-XTryp-B6 #analogue] : 373 nM
AAAUAAAGCAGUCAUCCAGUGAUGUUGGAAGGAGCGUGCGAAAGCACAGGUAGGUCGCCAAAACCUAAUAAUGGCUGCUAAAUAA [#SwitchBubble 2 #K4Early] : 211 nM

Enquiry: Give its apparent KD of K4 kissing-loop reporter value. Item: AGGUUUUGAUUAGGAUAUGCACUGACGACGAGAAUAUAGUGAUGUUAUAUAAUAGGAAUUAGUAGAGUAGAAGGGAUUGAGGUUU [SSFMNB.W]
Return: 168 nM

Enquiry: Consider the sequence shown here: GGUCUGCCGCAGUGAUGUUGCUGGCAUACACGAGGACCGGUACGGCCGCCACUCGAUGCUCCAAGAACCACCAAUCUUCGGUAUC [theeternabot_sameState_KL_Trp_A_48] What is its recorded apparent KD of K4 kissing-loop reporter?
Return: 235 nM

Enquiry: # lookup: apparent KD of K4 kissing-loop reporter of GGAUCCACCAGUGAUGUUGGAGAAAACUCUAAGGAUAUGACGAAAGUCAGAAGGUGGUAGACUGGGCAAAGUCCGGUCGGAUCCA [FmnA10 U30+G66]
Return: 120 nM

Enquiry: What value of measured apparent KD of K4 kissing-loop reporter is listed for AAACAUCACUACUUCUUCGUCCUAGAAGACUAGGAUAUCAGGAAACUGAGAAGGAGUCUCUGCAGUGAUGUUGCAGCUAGGACGA [[K]'-[F2]'-[F1]'-[F1]-[F2]-[K1]-[K2]-[F]''_Design2] ?
Return: 219 nM

Enquiry: // returns reported apparent KD of K4 kissing-loop reporter for input GCAGUGAUGUUGCACGAGUAGGGUAGAGUACGAGGACCGGUACGGCCGCCACUCGUACGGAACUCGCUAAUUUAUGGAAUGGUGA [I]
Return: 590 nM

Enquiry: What value of apparent KD of K4 kissing-loop reporter has been reported for the following sequence? AGUAGGAAACUACAAUCCUCUCUUACUGAAGGAGCGCGUGAAAACGCAGGUAGGUCGCAGGAUUGGAGAGUGAUGUUCUCCUUAA [Ex Arginine A K4 17]
Return: 331 nM

Enquiry: Quick check: apparent KD of K4 kissing-loop reporter of GGGCGGCAGACGGCCGCCACUCAUAGCAGCCAGUGAGUGAUGUUCGUGGCGGAGUGAUGUUCCUAGAGGACCGGGUUUGUUGUUC [Same State Tryptophan B GF 19] ?
Return: 354 nM
